tested.system: Human pyruvate kinase R (PKR) (Homo sapiens)
Construct: Human pyruvate kinase R (PKR), residues 14-574; 6x-His (N, cleaved yes); 8x-Arg (N, cleaved yes); SUMO (N, cleaved yes); host or cells: E. coli
Sequence (P30613 14-574): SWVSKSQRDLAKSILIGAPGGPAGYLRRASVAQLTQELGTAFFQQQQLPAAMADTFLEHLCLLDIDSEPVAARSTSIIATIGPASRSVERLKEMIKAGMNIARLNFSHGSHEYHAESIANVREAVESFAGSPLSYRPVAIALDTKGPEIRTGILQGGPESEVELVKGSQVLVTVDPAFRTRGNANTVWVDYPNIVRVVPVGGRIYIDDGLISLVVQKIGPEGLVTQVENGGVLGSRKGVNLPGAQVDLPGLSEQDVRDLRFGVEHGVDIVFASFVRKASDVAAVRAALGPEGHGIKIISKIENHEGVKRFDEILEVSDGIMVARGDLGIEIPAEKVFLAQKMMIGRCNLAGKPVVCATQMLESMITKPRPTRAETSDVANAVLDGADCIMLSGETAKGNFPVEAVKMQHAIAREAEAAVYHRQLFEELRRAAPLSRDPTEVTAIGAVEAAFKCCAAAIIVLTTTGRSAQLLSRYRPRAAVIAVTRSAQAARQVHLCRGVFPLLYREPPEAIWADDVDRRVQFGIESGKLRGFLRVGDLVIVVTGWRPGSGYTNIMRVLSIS
assay.details: Biochemical assay for activation of pyruvate kinase R (Kinase-Glo luminescence, ATP generation)
condition.label: 0.1 nM PKR, 2 mM FBP, 0.3 mM ADP, 0.1 mM PEP
Method: Proteins were translated as fusions with 6×-His, 8×-Arg, and SUMO at the N-terminus. […] All proteins were cloned, expressed in E. coli, and purified using similar protocols. […] Activation of pyruvate kinase R (PKR) and pyruvate kinase M2 (PKM2) were measured using a luminescence based measurement of ATP generation and the Kinase-Glo luminescent kinase reagent kit.
observed.property: AC50

Solved cases (2 shown):
Measured AC50, O=C(N1Cc2cn(S(=O)(=O)c3ccc4ncsc4c3)nc2C1)[C@]1(c2ccccn2)CCOC1 (single isomer, unassigned) [Compound 20] : 44 nM

Data point: C[C@@H](O)[C@H](C(=O)N1Cc2cn(S(=O)(=O)c3ccc4c(c3)NCCO4)nc2C1)c1ccccc1 [Compound 23] ; AC50 = 56 nM

Continuing:
# AC50 (compound: C[C@@H](O)[C@H](C(=O)N1Cc2cn(S(=O)(=O)c3ccc4c(c3)NCCO4)nc2C1)c1ccccc1 [Compound 24] ) is 78 nM

What the record says about O=C([C@@H](c1ccccc1)N1CCOCC1)N1Cc2cn(S(=O)(=O)c3ccc(OC(F)F)cc3)nc2C1 (single isomer, unassigned) [Compound 108] : AC50 is > 10000 nM
